- METHOD DESCRIPTION: protein stability index of a GFP-peptide fusion (yeast GPS) (PSI 1-4); higher = more stable; sorted into four equal gates, so the index is relative within each strain
- PARTICULARS: ubr1∆
Label scheme for protein stability index: lower than 3 is Condition not met, 3 and above is Condition met.

[
  {
    "SEQ STRING": "EASSLGYLDDSEILIIS [IRR1]",
    "CAT": "Condition not met"
  },
  {
    "SEQ STRING": "LPSSNGSSRIIASDGSE [RRP42]",
    "CAT": "Condition not met"
  },
  {
    "SEQ STRING": "LSKVAALSGNEGDASPF [RPB2]",
    "CAT": "Condition not met"
  },
  {
    "SEQ STRING": "FICTTFRTDMLQVADKF [SMC3]",
    "CAT": "Condition not met"
  },
  {
    "SEQ STRING": "DDRYGYQLYTSNPSGNY [PRE9]",
    "CAT": "Condition met"
  },
  {
    "SEQ STRING": "QLGEWAGLGKIDREGNA [RPS12]",
    "CAT": "Condition met"
  }
]
